Target: mGlyT-1b (Mus musculus)
Sequence (P28571 1-651 isoform P28571-2): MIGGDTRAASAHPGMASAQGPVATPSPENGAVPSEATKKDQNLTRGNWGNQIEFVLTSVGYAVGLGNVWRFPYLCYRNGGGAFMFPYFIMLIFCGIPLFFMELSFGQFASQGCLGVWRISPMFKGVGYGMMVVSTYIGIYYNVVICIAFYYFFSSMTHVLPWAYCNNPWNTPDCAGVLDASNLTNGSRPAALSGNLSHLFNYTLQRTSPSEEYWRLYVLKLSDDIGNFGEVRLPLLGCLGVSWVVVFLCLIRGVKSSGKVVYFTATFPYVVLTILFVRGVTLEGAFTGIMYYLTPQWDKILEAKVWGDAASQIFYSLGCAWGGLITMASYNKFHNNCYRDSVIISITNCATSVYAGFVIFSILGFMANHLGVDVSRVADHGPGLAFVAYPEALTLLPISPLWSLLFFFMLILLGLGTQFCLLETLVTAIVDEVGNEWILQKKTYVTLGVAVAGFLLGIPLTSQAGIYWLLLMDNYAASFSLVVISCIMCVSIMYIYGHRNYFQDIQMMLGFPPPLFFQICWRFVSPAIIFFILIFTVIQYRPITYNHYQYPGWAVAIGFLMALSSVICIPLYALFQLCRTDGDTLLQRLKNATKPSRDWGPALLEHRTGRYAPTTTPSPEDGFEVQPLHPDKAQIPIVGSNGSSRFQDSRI
Test: Glycine uptake inhibition assay (mGlyT-1b)
Format: cell-based
Provide the reported IC50 of each item.
Numbers only, in nM.

Below, each entry is followed by its recorded IC50 result.
O=C1NCN(c2ccc(F)cc2)C12CCN(C1CCCCC1(O)c1ccc(F)cc1)CC2 (racemic) [Example 87]
24
Cc1ccccc1C1(O)CCCCC1N1CCC2(CC1)C(=O)NCN2c1ccccc1 (racemic) [Example 76]
50
O=C1NCN(c2ccccc2)C12CCN(C1CCCCC1(O)c1ccccc1)CC2 (racemic) [Example 101]
56

Alright, here's another compound for you.
Name the reported IC50 value associated with the compound O=C1NCN(c2ccc(F)cc2)C12CCN(C1CCCCC1(O)c1ccc(Cl)cc1)CC2 (racemic) [Example 88]
60
